# assay details: Maximum concentration in plasma recorded in the period 0-6 hr post dose in rat at 10 mg/kg oral dose
# Type: ADME, organism-based
# Design: dose 10 mg/kg, route oral
outcome measure: Cmax (ng/mL)

>>> result_number("CC(C)C(NC(=O)Cn1c(-c2ccc(F)cc2)ncc(N)c1=O)C(=O)C(F)(F)F (stereo unspecified)")
1900

---

# assayed target: Neutrophil elastase (Homo sapiens, UniProt P08246)
# Sequence (P08246 whole entry): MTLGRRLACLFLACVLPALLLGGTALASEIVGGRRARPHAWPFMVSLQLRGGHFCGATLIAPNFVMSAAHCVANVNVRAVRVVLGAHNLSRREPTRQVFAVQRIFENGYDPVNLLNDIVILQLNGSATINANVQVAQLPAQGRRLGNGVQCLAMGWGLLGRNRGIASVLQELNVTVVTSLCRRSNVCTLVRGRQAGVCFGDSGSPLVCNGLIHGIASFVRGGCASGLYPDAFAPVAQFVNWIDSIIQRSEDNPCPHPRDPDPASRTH
# assay details: In vitro inhibition of human leukocyte elastase mediated hydrolysis of the synthetic substrate MeO-Suc-Ala-Ala-Pro-Val-pNA
Let's look at some compounds and their measured Ki.
outcome measure: Ki (nM)

>>> result_number("COc1ccc(-c2ncc(NC(=O)OCc3ccccc3)c(=O)n2CC(=O)NC(C(=O)C(F)(F)F)C(C)C)cc1 (stereo not drawn)")
8.1
>>> result_number("CC(C)C(NC(=O)Cn1c(-c2ccc([N+](=O)[O-])cc2)ncc(NC(=O)OCc2ccccc2)c1=O)C(=O)C(F)(F)F (stereo not drawn)")
17
>>> result_number("CC(C)C(NC(=O)Cn1c(-c2cccs2)ncc(NC(=O)OC(C)(C)C)c1=O)C(=O)C(F)(F)F (stereo not drawn)")
27
>>> result_number("CCNc1cnc(-c2cccs2)n(CC(=O)NC(C(=O)C(F)(F)F)C(C)C)c1=O (stereo not drawn)")
26
>>> result_number("CC(C)C(NC(=O)Cn1c(-c2ccc(NC=O)cc2)ncc(NC(=O)OCc2ccccc2)c1=O)C(=O)C(F)(F)F (stereo not drawn)")
9
>>> result_number("CC(C)C(NC(=O)Cn1c(-c2ccc(F)cc2)ncc(N)c1=O)B1OC(C)(C)C(C)(C)O1 (stereo not drawn)")
6.2
>>> result_number("CC(C)C(NC(=O)Cn1c(-c2ccc(F)cc2)ncc(NC(=O)OCc2ccncc2)c1=O)C(=O)C(F)(F)F (stereo not drawn)")
23
>>> result_number("CC(C)C(NC(=O)Cn1c(-c2ccc(F)cc2)ncc(NC(=O)OCc2ccccn2)c1=O)C(=O)C(F)(F)F (stereo not drawn)")
22
